Test system: U-2932
assay_notes: growth inhibition by drug alone (1 - RLU/untreated control) (fraction); higher = stronger inhibition
particulars: 10 nM; time (day): 6; 177Lu-lilotomab satetraxetan 0 ug/ml
measured_quantity: growth inhibition by drug alone

>>> measurement("COc1c(C)cnc(Cn2cnc3c(Cl)nc(N)nc32)c1C")
-0.0336
>>> measurement("CCOc1ccc(Cc2cc([C@@H]3O[C@H](CO)[C@@H](O)[C@H](O)[C@H]3O)ccc2Cl)cc1 [Dapagliflozin]")
-0.0754
>>> measurement("Nc1ccc(-c2ccc3ncc4ccc(=O)n(-c5cccc(C(F)(F)F)c5)c4c3c2)cn1 [Torin 2]")
0.244
>>> measurement("N#Cc1ccc(C(c2ccc(C#N)cc2)n2cncn2)cc1 [Letrozole]")
0.00419
>>> measurement("O=C(NCCS(=O)(=O)c1ccc(C(F)(F)F)cn1)c1ccc(Cl)cc1")
-0.101
>>> measurement("COc1cc2/c(=N/c3ccc(Br)cc3F)nc[nH]c2cc1OCC1CCN(C)CC1 [Vandetanib (Zactima)]")
0.016
>>> measurement("O=C(O)Cc1cccc(OCCCN(Cc2cccc(C(F)(F)F)c2Cl)CC(c2ccccc2)c2ccccc2)c1")
-0.11
>>> measurement("CC[C@@H]1C(=O)N(C)c2cnc(Nc3ccc(C(=O)N[C@H]4CC[C@H](N5CCN(CC6CC6)CC5)CC4)cc3OC)nc2N1C(C)C [BI6727 (Volasertib)]")
0.37

====

Tested on: U-2932
assay_notes: growth inhibition by drug alone (1 - RLU/untreated control) (fraction); higher = stronger inhibition
particulars: 10 nM; time (day): 5; 177Lu-lilotomab satetraxetan 0 ug/ml
Labels assigned by growth inhibition by drug alone range: bucket 1 = under -0.06, bucket 2 = from -0.06 up to -0.02, bucket 3 = -0.02 and over

>>> category_label("CC(C)OC(=O)C1=CN(C(=O)c2ccc(F)c(F)c2)CC(C)(C)c2c1[nH]c1ccccc21")
"bucket 1"
>>> category_label("COc1ccc(-c2ccc3c(N4CCOCC4)nc(N4C[C@@H](C)O[C@@H](C)C4)nc3n2)cc1CO")
"bucket 3"
>>> category_label("COC(=O)c1ccc2c(C(=Nc3ccc(N(C)C(=O)CN4CCN(C)CC4)cc3)c3ccccc3)c(O)[nH]c2c1")
"bucket 2"
>>> category_label("CCOc1ccc(Nc2nc(-c3c(C)nc4ccccn34)cs2)cc1")
"bucket 3"
>>> category_label("CN(C)CCCCSC(=N)N")
"bucket 3"
>>> category_label("CCCCCCCc1ccc(CCc2cccc(O)c2C(=O)O)cc1")
"bucket 2"
>>> category_label("CC1(C)CNc2cc(NC(=O)c3cccnc3NCc3ccncc3)ccc21 [Motesanib Diphosphate]")
"bucket 1"
>>> category_label("C[C@@H](O[C@H]1OCCN(Cc2n[nH]c(=O)[nH]2)[C@H]1c1ccc(F)cc1)c1cc(C(F)(F)F)cc(C(F)(F)F)c1 [Aprepitant (MK-0869)]")
"bucket 2"

====

Tested on: U-2932
assay_notes: growth inhibition by drug plus 177Lu-lilotomab satetraxetan (1 - RLU/untreated control) (fraction); higher = stronger inhibition
particulars: 1000 nM; time (day): 6; 177Lu-lilotomab satetraxetan 1 ug/ml
measured_quantity: growth inhibition by drug plus 177Lu-lilotomab satetraxetan

>>> measurement("CCCCCCCCc1ccc(CCC(N)(CO)CO)cc1")
0.203
>>> measurement("Cc1[nH]c2ccccc2c1CCNCc1ccc(/C=C/C(=O)NO)cc1")
0.986
>>> measurement("c1ccc2c(-c3cnn4cc(-c5ccc(N6CCNCC6)cc5)cnc34)ccnc2c1")
0.209
>>> measurement("COc1cc(OC2CCN(C)CC2)ccc1Nc1ncc2c(n1)n(C1CCCC1)c(=O)n2C")
0.128
>>> measurement("C[C@@H](Oc1cc(-c2cnn(C3CCNCC3)c2)cnc1N)c1c(Cl)ccc(F)c1Cl")
0.566

====

System: U-2932
assay_notes: growth inhibition by drug plus 177Lu-lilotomab satetraxetan (1 - RLU/untreated control) (fraction); higher = stronger inhibition
particulars: 1000 nM; time (day): 3; 177Lu-lilotomab satetraxetan 1 ug/ml
Recorded growth inhibition by drug plus 177Lu-lilotomab satetraxetan values for a group of compounds are listed next.
measured_quantity: growth inhibition by drug plus 177Lu-lilotomab satetraxetan

>>> measurement("O=C(NCCS(=O)(=O)c1ccc(C(F)(F)F)cn1)c1ccc(Cl)cc1")
-0.0112
>>> measurement("Oc1nc(-c2ccc(C(F)(F)F)cc2)nc2c1CSCC2")
-0.0747
>>> measurement("CC[C@]1(O)C[C@@H]2CN(CCc3c([nH]c4ccccc34)[C@@](C(=O)OC)(c3cc4c(cc3OC)N(C)[C@H]3[C@@](O)(C(=O)OC)[C@H](OC(C)=O)[C@]5(CC)C=CCN6CC[C@]43[C@@H]65)C2)C1 [Vinblastine]")
0.96
>>> measurement("CCOc1ccc(Cc2cc([C@@H]3O[C@H](CO)[C@@H](O)[C@H](O)[C@H]3O)ccc2Cl)cc1 [Dapagliflozin]")
0.0836
>>> measurement("Cc1cc(O)c2c(c1)C(=O)c1cccc(O)c1C2=O [Chrysophanic acid (Chrysophanol)]")
-0.0941
>>> measurement("CS(=O)(=O)CCNCc1ccc(-c2ccc3ncnc(Nc4ccc(OCc5cccc(F)c5)c(Cl)c4)c3c2)o1 [Lapatinib Ditosylate (Tykerb)]")
0.0709
>>> measurement("Cc1ccnc(NS(=O)(=O)c2ccc(NC(=O)Nc3ccc(S(=O)(=O)Nc4nccc(C)n4)cc3)cc2)n1")
0.099
>>> measurement("CCc1cc(-c2n[nH]c(C)c2-c2ccc3c(c2)OCCO3)c(O)cc1O")
0.0475

====

System: RIVA
assay_notes: growth inhibition by drug alone (1 - RLU/untreated control) (fraction); higher = stronger inhibition
particulars: 100 nM; time (day): 6; 177Lu-lilotomab satetraxetan 0 ug/ml
Label scheme for growth inhibition by drug alone: lower than -0.3 is false, -0.3 and above is true.

>>> category_label("CCC(C)n1ncn(-c2ccc(N3CCN(c4ccc(OCC5COC(Cn6cncn6)(c6ccc(Cl)cc6Cl)O5)cc4)CC3)cc2)c1=O (stereo not drawn) [Itraconazole (Sporanox)]")
"true"
>>> category_label("CCOc1ccc(Nc2nc(-c3c(C)nc4ccccn34)cs2)cc1")
"true"
>>> category_label("Nc1nccc(Oc2ccc(NC(=O)c3c[nH]cc(-c4ccc(F)cc4)c3=O)cc2F)c1Cl")
"false"
>>> category_label("CN(C)c1nc(N(C)C)nc(N(C)C)n1")
"false"
>>> category_label("CN1CCN(c2nc(C3=C(c4c[nH]c5ccccc45)C(=O)NC3=O)c3ccccc3n2)CC1")
"true"
>>> category_label("Cn1cnc([N+](=O)[O-])c1Sc1ncnc2[nH]cnc12")
"false"
>>> category_label("CC(NC(=O)c1ccccc1/N=C/c1c(O)ccc2ccccc12)c1ccccc1 (stereo not drawn)")
"true"
>>> category_label("CN(Cc1cnc2nc(N)nc(N)c2n1)c1ccc(C(=O)N[C@@H](CCC(=O)O)C(=O)O)cc1 [Abitrexate (Methotrexate)]")
"true"

====

System: U-2932
assay_notes: growth inhibition by drug alone (1 - RLU/untreated control) (fraction); higher = stronger inhibition
particulars: 10 nM; time (day): 6; 177Lu-lilotomab satetraxetan 0 ug/ml
Recorded growth inhibition by drug alone values for a group of compounds are listed next.
measured_quantity: growth inhibition by drug alone

>>> measurement("CN(C)c1nc(N(C)C)nc(N(C)C)n1")
-0.058
>>> measurement("COc1ccc2c(c1)CCC1C2CCC2(C)C(NCCCCCCN3C(=O)C=CC3=O)CCC12 (stereo not drawn)")
-0.0318
>>> measurement("COc1ccccc1OCC(O)CN1CCN(CC(=O)Nc2c(C)cccc2C)CC1 (stereo not drawn) [Ranolazine (Ranexa)]")
-0.119
>>> measurement("NC(=O)c1ccc(-c2nc(-c3ccccn3)c(-c3ccc4c(c3)OCO4)[nH]2)cc1")
-0.0929
>>> measurement("COCC[n+]1c2c(n(Cc3cnccn3)c1C)C(=O)c1ccccc1C2=O")
0.974
>>> measurement("COc1cc(Nc2c(C#N)cnc3cc(OCCCN4CCN(C)CC4)c(OC)cc23)c(Cl)cc1Cl [Bosutinib (SKI-606)]")
-0.0345
>>> measurement("CNC(=O)c1cc(Oc2ccc(NC(=O)Nc3ccc(Cl)c(C(F)(F)F)c3)cc2)ccn1")
-0.0896
>>> measurement("COc1c(C)c2c(c(O)c1C/C=C(\\C)CCC(=O)OCCN1CCOCC1)C(=O)OC2 [Mycophenolate mofetil (CellCept)]")
-0.00474

====

Recorded growth inhibition by drug plus 177Lu-lilotomab satetraxetan values for a group of compounds are listed next.
System: U-2932
assay_notes: growth inhibition by drug plus 177Lu-lilotomab satetraxetan (1 - RLU/untreated control) (fraction); higher = stronger inhibition
particulars: 1000 nM; time (day): 6; 177Lu-lilotomab satetraxetan 1 ug/ml
measured_quantity: growth inhibition by drug plus 177Lu-lilotomab satetraxetan

>>> measurement("Nc1nc(F)nc2c1ncn2[C@@H]1O[C@H](CO)[C@@H](O)[C@@H]1O [Fludarabine (Fludara)]")
0.185
>>> measurement("CS(=O)(=O)c1ccc(C(=O)Nc2ccc(Cl)c(-c3ccccn3)c2)c(Cl)c1 [Vismodegib (GDC-0449)]")
0.297
>>> measurement("CS(=O)(=O)N1CCN(Cc2cc3nc(-c4cccc5[nH]ncc45)nc(N4CCOCC4)c3s2)CC1")
0.913
>>> measurement("CCCCc1nc2cc(/C=C/C(=O)NO)ccc2n1CCN(CC)CC [SB939 (Pracinostat)]")
0.982
>>> measurement("CN(C)Cc1c(C(=O)NCCOc2ccc(C(=O)NO)cc2)oc2ccccc12")
0.991
>>> measurement("CC(C)Oc1cc(Nc2nc(N[C@@H](C)c3ccc(F)cn3)ncc2Cl)n[nH]1")
0.323
>>> measurement("COc1c(C)c2c(c(O)c1C/C=C(\\C)CCC(=O)O)C(=O)OC2 [Mycophenolic (Mycophenolate)]")
0.662
>>> measurement("O=C(Nc1ccccc1-c1cn2c(CN3CCNCC3)csc2n1)c1cnc2ccccc2n1")
0.146
>>> measurement("c1ccc(-c2nn3c(c2-c2ccnc4cc(OCCN5CCOCC5)ccc24)CCC3)nc1")
0.121
